assayed.system: bovine brain FPTase (Bos taurus, UniProt P29702+P49355)
Construct: Famesyl-protein transferase (FPTase) from bovine brain
assay.comment: In vitro inhibition of Ras farnesyl-protein transferase (FPTase)
run.parameters: Ras-CVLS, [3H]FPP, concentration giving 50% inhibition, read-out: IC50, inhibition of RAS farnesylation
So I've got a bunch of compounds here, and I need their pIC50 values.
Reminder that pIC50 is minus the log10 of a molar concentration.

// sample Cc1cc(O)c(CCC(C)CC[C@@]2(C)[C@H](C)C(=O)CC[C@@H]2C)c(O)c1C (stereo partly shown) , its pIC50 was 4.73

// sample "C/C(=C\Cc1c(O)cc(C)c(C=O)c1O)CC[C@@]1(C)[C@H](C)C(=O)CC[C@@H]1C" , its pIC50 was 6.15

// sample "C/C(=C\Cc1c(O)cc(C)cc1O)CC[C@@]1(C)[C@H](C)C(=O)CC[C@@H]1C" , its pIC50 was 4.70

// sample "CC(/C=C/[C@@]1(C)[C@H](C)C(=O)CC[C@@H]1C)=C\Cc1c(O)cc(C)c(C=O)c1O" , its pIC50 was 5.19

// sample "CC(/C=C/[C@@]1(C)[C@H](C)C(=O)C=C[C@@H]1C)=C\Cc1c(O)c(Cl)c(C)c(C=O)c1O" , its pIC50 was 4.82

These measurements were taken from patent US5420334A.
